B1: Complement factor H (Homo sapiens), P08603 (parent)
chain: MRLLAKIICLMLWAICVAEDCNELPPRRNTEILTGSWSDQTYPEGTQAIYKCRPGYRSLGNVIMVCRKGEWVALNPLRKCQKRPCGHPGDTPFGTFTLTGGNVFEYGVKAVYTCNEGYQLLGEINYRECDTDGWTNDIPICEVVKCLPVTAPENGKIVSSAMEPDREYHFGQAVRFVCNSGYKIEGDEEMHCSDDGFWSKEKPKCVEISCKSPDVINGSPISQKIIYKENERFQYKCNMGYEYSERGDAVCTESGWRPLPSCEEKSCDNPYIPNGDYSPLRIKHRTGDEITYQCRNGFYPATRGNTAKCTSTGWIPAPRCTLKPCDYPDIKHGGLYHENMRRPYFPVAVGKYYSYYCDEHFETPSGSYWDHIHCTQDGWSPAVPCLRKCYFPYLENGYNQNYGRKFVQGKSIDVACHPGYALPKAQTTVTCMENGWSPTPRCIRVKTCSKSSIDIENGFISESQYTYALKEKAKYQCKLGYVTADGETSGSITCGKDGWSAQPTCIKSCDIPVFMNARTKNDFTWFKLNDTLDYECHDGYESNTGSTTGSIVCGYNGWSDLPICYERECELPKIDVHLVPDRKKDQYKVGEVLKFSCKPGFTIVGPNSVQCYHFGLSPDLPICKEQVQSCGPPPELLNGNVKEKTKEEYGHSEVVEYYCNPRFLMKGPNKIQCVDGEWTTLPVCIVEESTCGDIPELEHGWAQLSSPPYYYGDSVEFNCSESFTMIGHRSITCIHGVWTQLPQCVAIDKLKKCKSSNLIILEEHLKNKKEFDHNSNIRYRCRGKEGWIHTVCINGRWDPEVNCSMAQIQLCPPPPQIPNSHNMTTTLNYRDGEKVSVLCQENYLIQEGEEITCKDGRWQSIPLCVEKIPCSQPPQIEHGTINSSRSSQESYAHGTKLSYTCEGGFRISEENETTCYMGKWSSPPQCEGLPCKSPPEISHGVVAHMSDSYQYGEEVTYKCFEGFGIDGPAIAKCLGEKWSHPPSCIKTDCLSLPSFENAIPMGEKKDVYKAGEQVTYTCATYYKMDGASNVTCINSRWTGRPTCRDTSCVNPPTVQNAYIVSRQMSKYPSGERVRYQCRSPYEMFGDEEVMCLNGNWTEPPQCKDSTGKCGPPPPIDNGDITSFPLSVYAPASSVEYQCQNLYQLEGNKRITCRNGQWSEPPKCLHPCVISREIMENYNIALRWTAKQKLYSRTGESVEFVCKRGYRLSSRSHTLRTTCWDGKLEYPTCAKR

variants of: B1; conditions: with sdre_staam sdrE
MEASURED_QUANTITY: effect of a mutation on the interaction

Known results for variants:
H1212A; increasing interaction
L1223A; increasing interaction
C1218A; increasing interaction
L1214A; increasing interaction
T1217A; with no effect
K1222A; with no effect

I have this variant here, R1210A , and I need its recorded effect of a mutation on the interaction.
increasing interaction

Record: T1213A
increasing interaction

Now consider R1215A and answer again.
with no effect

Another: T1216A
increasing interaction
